tgt: human M2 receptor (Homo sapiens, UniProt P08172)
Construct: expressed in transfected cells; host or cells: CHO-DUKX (CHO-DUKX-M2-GIRK)
Sequence (P08172 whole entry): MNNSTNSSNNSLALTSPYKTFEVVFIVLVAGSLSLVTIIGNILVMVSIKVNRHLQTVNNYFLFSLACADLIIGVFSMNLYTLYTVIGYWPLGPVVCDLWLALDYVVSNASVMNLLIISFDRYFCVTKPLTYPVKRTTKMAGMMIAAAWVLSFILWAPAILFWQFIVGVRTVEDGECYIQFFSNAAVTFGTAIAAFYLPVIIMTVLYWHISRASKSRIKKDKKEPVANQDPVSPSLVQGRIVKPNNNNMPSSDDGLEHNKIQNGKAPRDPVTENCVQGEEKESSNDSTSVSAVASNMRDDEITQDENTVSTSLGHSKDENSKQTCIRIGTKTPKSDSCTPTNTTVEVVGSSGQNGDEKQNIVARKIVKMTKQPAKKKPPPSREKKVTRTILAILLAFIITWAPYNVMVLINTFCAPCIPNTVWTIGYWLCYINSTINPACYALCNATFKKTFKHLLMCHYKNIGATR
procedure details: Functional M2-GIRK1/4 activation test: positive cooperativity (α factor), shift of acetylcholine dose-response curve
Assay type: cell-based
experimental conditions: Allosteric EC50 shift of acetylcholine 8-point dose-response curve; CHO-DUKX-M2-GIRK cells; α>1 = positive cooperativity
Recorded Cooperativity (alpha factor) for the following compounds
Simply state the number, no unit and no words.

# compound, tgt, Cooperativity (alpha factor)
measured = [
    ("CC(C)(NC(=O)c1cn(-c2c(F)cc(F)cc2F)c2nc(N3C[C@@H](O)[C@H](O)C3)c(F)cc2c1=O)C(F)(F)C(F)(F)F", "human M2 receptor (Homo sapiens, UniProt P08172)", 45),
]

// query Item CC(NC(=O)c1cn(-c2c(F)cc(F)cc2F)c2nc(N3CC[C@H](O)C3)c(F)cc2c1=O)C(F)(F)C(F)(F)F (single isomer, unassigned) [Example 113] has what recorded Cooperativity (alpha factor)?
// result 35

// query Item CC(C)C[C@@H](NC(=O)c1cn(-c2c(F)cc(F)cc2F)c2nc(N3C[C@@H](O)[C@H](O)C3)c(F)cc2c1=O)C(F)(F)F has what recorded Cooperativity (alpha factor)?
// result 49

// query Item CCC(C)(C)NC(=O)c1cn(-c2c(F)cc(F)cc2F)c2nc(N3C[C@@H](O)[C@H](O)C3)c(F)cc2c1=O has what recorded Cooperativity (alpha factor)?
// result 44
